- target.or.test.system: calf thymus/mouse ribonucleotide reductase (mammalian RR) (Bos taurus)
- Sequence (Q32LP1 1-791): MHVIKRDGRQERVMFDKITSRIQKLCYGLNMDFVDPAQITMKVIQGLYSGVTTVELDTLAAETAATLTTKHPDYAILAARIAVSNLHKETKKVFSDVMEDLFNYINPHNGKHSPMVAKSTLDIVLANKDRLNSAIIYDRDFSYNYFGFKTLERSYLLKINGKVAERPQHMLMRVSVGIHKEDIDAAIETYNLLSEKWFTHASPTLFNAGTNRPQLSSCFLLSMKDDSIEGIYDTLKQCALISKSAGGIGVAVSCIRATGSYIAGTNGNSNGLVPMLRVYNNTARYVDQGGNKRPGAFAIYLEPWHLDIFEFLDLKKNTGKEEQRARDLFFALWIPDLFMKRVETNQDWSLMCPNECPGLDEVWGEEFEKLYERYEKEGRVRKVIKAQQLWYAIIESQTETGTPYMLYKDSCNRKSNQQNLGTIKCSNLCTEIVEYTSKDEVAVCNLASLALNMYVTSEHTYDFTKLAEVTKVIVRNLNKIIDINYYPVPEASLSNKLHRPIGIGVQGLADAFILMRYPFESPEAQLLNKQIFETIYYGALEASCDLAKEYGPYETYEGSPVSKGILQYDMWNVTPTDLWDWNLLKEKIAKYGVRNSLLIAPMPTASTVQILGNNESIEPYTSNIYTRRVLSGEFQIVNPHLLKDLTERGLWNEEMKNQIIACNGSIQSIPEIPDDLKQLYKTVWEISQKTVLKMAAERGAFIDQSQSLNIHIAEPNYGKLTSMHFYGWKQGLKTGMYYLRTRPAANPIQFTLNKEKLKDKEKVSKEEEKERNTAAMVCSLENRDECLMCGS
- assay.method.text: biochemical
pIC50: −log10 of the molar value. Ends that are not written are not given here.
Here, each record is paired with measured pIC50 data.

Consider the worked cases shown below.
substance	target.or.test.system	pIC50
Ac-FTLDADL [Peptide 24, Ac- (FTLDADL)]	calf thymus/mouse ribonucleotide reductase (mammalian RR) (Bos taurus)	< 3.40
Ac-FTVDADF [Peptide 13, Ac- (FTVDADF)]	calf thymus/mouse ribonucleotide reductase (mammalian RR) (Bos taurus)	4.52
Ac-NSFTLDADF [Peptide 1]	calf thymus/mouse ribonucleotide reductase (mammalian RR) (Bos taurus)	4.82 to 5.05

Incoming: Please look up its pIC50: Ac-SFTLDADF [Peptide 2]
Outgoing: 4.70 to 5.10

Incoming: Data request, read-out pIC50, for Ac-FTLDADFAA [Peptide 28]
Outgoing: 3.30

Incoming: Query: pIC50; subject: FTLDADF [Peptide 5, FTLDADF]
Outgoing: < 3.40

Incoming: # pIC50 lookup, item Ac-FTLNADF [Peptide 16, Ac- (FTLNADF)]
Outgoing: 4.54 to 4.60
